Measured values drawn from PubChem BioAssay AID1845208 for this set.

# Test system: NCI-H196 SCLC complex tumor spheroid viability
# procedure.details: Anticancer human tumor NCI-H196 cell line growth inhibition;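 also: spheroids exposed to compounds for 7 days before readout; 100% = DMSO vehicle control wells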
# recorded.conditions: second compound 100 µM; first compound 0.0316 µM; active compounds read low
experimental.endpoint: viability, T/C (%)
Only the number, expressed in %, is required.

Before answering, review these 5 worked examples.
{"compound": "COc1cc(C)[nH]c(=O)c1CN1CCc2c(Cl)cc(C(OC)C3COC3)c(Cl)c2C1=O (stereo unspecified) + Cn1nnc2c(C(N)=O)ncn2c1=O", "viability, T/C / %": 102}
{"compound": "[2H]c1nc(C)nc([2H])c1-c1cc(NC[C@@H](C)c2cccc3c(C(=O)NC)ccnc23)ncn1 + Cn1nnc2c(C(N)=O)ncn2c1=O", "viability, T/C / %": 101}
{"compound": "Cc1cc(C)c(CNC(=O)c2cc(-c3ccc(CN4CCOCC4)cc3)cc3c2cnn3C2CCCC2)c(=O)[nH]1 + Cn1nnc2c(C(N)=O)ncn2c1=O", "viability, T/C / %": 94.5}
{"compound": "CC1COCCN1c1cc(-c2ccnn2C)c2ccnc(-c3ccn[nH]3)c2n1 (stereo unspecified) + Cn1nnc2c(C(N)=O)ncn2c1=O", "viability, T/C / %": 90.3}
{"compound": "CC(C)n1c(=O)n(C)c2cnc3cc(F)c(-c4ccc(OCCCN5CCCCC5)nc4)cc3c21 + Cn1nnc2c(C(N)=O)ncn2c1=O", "viability, T/C / %": 103}

Let us move to another entry and its viability, T/C.
Exercise: Any idea what its viability, T/C is? The compound is COc1ccc([C@@H](O)c2cc(-c3ncnc4cc(N5CCOCC5)ccc34)c(F)cc2Cl)nn1 + Cn1nnc2c(C(N)=O)ncn2c1=O
Solution: 105
